assay: Apparent permeability from basolateral to apical side in wild-type MDCK cells at 5 uM after 90 mins; type: ADME, cell-based, Canis lupus familiaris; conditions: dog
Quantity measured: Papp B→A at 1.5 h, 5 µM (×10⁻⁶ cm/s)

C[C@H]1O[C@@H](O[C@H]2[C@@H](O)C[C@H](O[C@H]3[C@@H](O)C[C@H](O[C@H]4CC[C@@]5(C)[C@H](CC[C@@H]6[C@@H]5C[C@@H](O)[C@]5(C)[C@@H](C7=CC(=O)OC7)CC[C@]65O)C4)O[C@@H]3C)O[C@@H]2C)C[C@H](O)[C@@H]1O: 8.06
CC(=O)O[C@H]1C(=O)[C@@]2(C)[C@H]([C@H](OC(=O)c3ccccc3)[C@]3(O)C[C@H](OC(=O)[C@H](O)[C@@H](NC(=O)c4ccccc4)c4ccccc4)C(C)=C1C3(C)C)[C@]1(OC(C)=O)CO[C@@H]1C[C@@H]2O: 29.8
CO[C@H]1C[C@H]2OC[C@@]2(OC(C)=O)[C@H]2[C@H](OC(=O)c3ccccc3)[C@]34OC(=O)O[C@H]3[C@H](OC(=O)[C@H](O)[C@@H](NC(=O)OC(C)(C)C)c3ccccc3)C(C)=C([C@@H](OC(=O)N(C)C)C(=O)[C@]12C)C4(C)C: 2.99
CO[C@H]1C(=O)[C@]2(C)[C@@H](OC(=O)N(C)C)C[C@H]3OC[C@@]3(OC(C)=O)[C@H]2[C@H](OC(=O)c2ccccc2)[C@]2(O)C[C@H](OC(=O)[C@H](O)[C@@H](NC(=O)OC(C)(C)C)c3ccccc3)C(C)=C1C2(C)C: 3.17
